Just for reference, ChEMBL document CHEMBL1132593 is where these values come from.

Recorded pKd, one value per entry.
Species on record: Mus musculus
Assay: Dissociation constant [1000(nM)] in mouse isolated vas deferens using the cannabinoid receptor agonist.
Format: functional, organism-based
pKd: −log10 of the molar value.

compound-smiles	pKd
Cc1c(C(=O)N2CCCCC2)nn(-c2ccc(Cl)cc2Cl)c1-c1ccc(Br)cc1	6.76
Cc1c(C(=O)N2CCN(C)CC2)nn(-c2ccc(Cl)cc2Cl)c1-c1ccc(Br)cc1	6.49
Cc1c(C(=O)NN2CCCCC2)nn(-c2ccc(Cl)cc2Cl)c1-c1ccccc1N	6.93

* * *

Item-by-item account of Kd
Organism: Cavia porcellus
Experiment: Dissociation constant [1000(nM)] in myenteric plexus-longitudinal muscle of guinea pig small intestine using the cannabinoid receptor agonist.
Assay type: functional, organism-based
property-measured: Kd (nM)

compound-smiles	reported-value
Cc1c(C(=O)N2CCN(C)CC2)nn(-c2ccc(Cl)cc2Cl)c1-c1ccc(Br)cc1	12.3
Cc1c(C(=O)N2CCCCC2)nn(-c2ccc(Cl)cc2Cl)c1-c1ccc(Br)cc1	4.72
Cc1c(C(=O)NN2CCCCC2)nn(-c2ccc(Cl)cc2Cl)c1-c1ccccc1[N+](=O)[O-]	5.96
Cc1c(C(=O)NN2CCCCC2)nn(-c2ccc(Cl)cc2Cl)c1-c1ccccc1	7
Cc1c(C(=O)NN2CCCCC2)nn(-c2ccc(Cl)cc2Cl)c1-c1ccc([N+](=O)[O-])cc1	2.9
Cc1c(C(=O)NN2CCCCC2)nn(-c2ccc(Cl)cc2Cl)c1-c1ccccc1I	5.87
Cc1c(C(=O)NN2CCCCCC2)nn(-c2ccc(Cl)cc2Cl)c1-c1ccc(Br)cc1	0.38
